Where these numbers come from: the supplement of paper PMC10567573

What protein stability index was measured for each of the following?
B1: KRT34 (parent)
chain: YQSYFKTIEELQQKILCAKAENAR

Variants of: B1
EXPERIMENTAL PROTOCOL: protein stability index of a GFP-peptide fusion (GPS, HEK-293T) (PSI 1-6); higher = more stable;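 further: lentivirally expressed fusions sorted by FACS into six bins by GFP to DsRed ratio, PSI derived from sequencing read proportions per bin multiplied by bin number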
CONDITION CONTEXT: c terminus: a fixed tail appended

Some solved cases for reference:
For this variant ( YQSYFKTIEELQQKILCAKAENYR [A23Y] ), measured protein stability index is 1.87

For this variant ( YQSYFKTIYELQQKILCAKAENAR [E9Y] ), measured protein stability index is 1.64

For this variant ( YQSYFKTIEELQQKILCHKAENAR [A18H] ), measured protein stability index is 1.53

For this variant ( YQTYFKTIEELQQKILCAKAENAR [S3T] ), measured protein stability index is 1.61

For this variant ( YQSYFKTIEELQQKILCAKWENAR [A20W] ), measured protein stability index is 1.46

For this variant ( YQSYFKGIEELQQKILCAKAENAR [T7G] ), measured protein stability index is 1.96

Quick one: give me protein stability index for each item below, same order please.
1. YQSYFQTIEELQQKILCAKAENAR [K6Q]
2. YQSMFKTIEELQQKILCAKAENAR [Y4M]
3. YQSYFKTIEELKQKILCAKAENAR [Q12K]
4. YQSYFKTIEELQQKILCAKHENAR [A20H]

1. 2.53
2. 1.48
3. 2
4. 2.06

Quick one: give me protein stability index for each item below, same order please.
1. YQSYFKTIEELQQKILCALAENAR [K19L]
2. YQSYFKTIEELQQKILCAHAENAR [K19H]
3. YQSYFKTIEELQQAILCAKAENAR [K14A]
4. YQSYFKTIEELHQKILCAKAENAR [Q12H]

1: 2.93; 2: 1.64; 3: 1.41; 4: 2.34
